Reference for the values: paper PMC9588736

subject-of-test: KEAP1 (Homo sapiens, UniProt Q14145)
Sequence (Q14145 321-609): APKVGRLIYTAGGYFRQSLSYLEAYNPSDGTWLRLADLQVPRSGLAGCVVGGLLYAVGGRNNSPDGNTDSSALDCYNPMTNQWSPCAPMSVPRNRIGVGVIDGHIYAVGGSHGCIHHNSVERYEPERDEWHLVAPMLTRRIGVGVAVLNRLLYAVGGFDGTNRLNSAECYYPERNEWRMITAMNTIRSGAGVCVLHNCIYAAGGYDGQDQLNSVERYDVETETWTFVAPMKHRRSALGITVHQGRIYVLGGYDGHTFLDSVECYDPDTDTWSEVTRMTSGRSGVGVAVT
method-summary: KEAP1-NRF2 displacement TR-FRET assay
Type: binding
run-conditions: read-out: IC50, KEAP1-NRF2 TR-FRET displacement
property: IC50 (nM)
Write it as a number; the unit nM goes unstated.

Form field: reported IC50 of COc1cc(C(CC(=O)O)c2ccc(C)c(CN(C)S(=O)(=O)c3ccc(OCCCCCCNC(=O)C[C@@H]4N=C(c5ccc(Cl)cc5)c5c(sc(C)c5C)-n5c(C)nnc54)cc3)c2)cc2nnn(C)c12 (stereo partly shown) [DGY-05–089] 147
